# target entity: Corticosteroid 11-beta-dehydrogenase isozyme 1
# procedure text: Inhibition of human recombinant 11beta-HSD1 expressed in Pichia pastoris
property label: IC50 (µM)
A number alone suffices; assume µM.

Dear colleague, I am looking for the recorded IC50 of the following compound: "O=C(Nc1cccc(C(=O)N2CCC[C@H]3CCCC[C@@H]32)c1)c1ccccc1"
0.014
